- Tested on: HT-22
- Test: Neurotoxicity against mouse HT22 cells assessed as decrease in cell viability at 25 uM measured after 24 hrs by MTT assay
- Type: toxicity, cell-based
- Condition Details: ht-22, 24 h

Molecule	Activity
COc1cc(/C=C/C(=O)O)ccc1O [FERULATE]	Non-Toxic
COc1cc(C2Oc3cc([C@H]4Oc5cc(O)cc(O)c5C(=O)[C@@H]4O)ccc3OC2CO)ccc1O (some centres undefined)	Non-Toxic
COc1cc(/C=C/C(=O)Oc2cc(O)c3c(c2)O[C@H](c2ccc4c(c2)OC(c2ccc(O)c(OC)c2)C(CO)O4)[C@@H](O)C3=O)ccc1O (some centres undefined)	Toxic
COc1cc(C2Oc3cc([C@H]4Oc5cc(OC(=O)/C=C/c6ccccc6)cc(O)c5C(=O)[C@@H]4O)ccc3OC2CO)ccc1O (some centres undefined)	Non-Toxic

* * *

- System Tested: Amyloid-beta precursor protein (Homo sapiens)
- Test: Inhibition of amyloid beta 42 (unknown origin) expressed in Escherichia coli BL21 (DE3) aggregation at 10 uM incubated for overnight by Th-S fluorescence staining based UV-Vis spectrophotometer (reference value: 0 +/- 1%)
Measure Name: inhibition (%)
Numbers only, in %.

// solved cases for inhibition follow
Compound	inhibition, %
COc1cc(/C=C/C(=O)Oc2cc(O)c3c(c2)O[C@H](c2ccc4c(c2)O[C@@H](c2ccc(O)c(OC)c2)[C@H](CO)O4)[C@@H](O)C3=O)ccc1O	14.2
COc1cc(/C=C/C(=O)Oc2cc(O)c3c(c2)O[C@H](c2ccc4c(c2)O[C@H](c2ccc(O)c(OC)c2)[C@@H](CO)O4)[C@@H](O)C3=O)ccc1O	13.2
COc1cc(/C=C/C(=O)Oc2cc(O)c3c(c2)O[C@H](c2ccc4c(c2)OC(c2ccc(O)c(OC)c2)C(CO)O4)[C@@H](O)C3=O)ccc1O (stereo not given in full)	16.8
COc1cc(C2Oc3cc([C@H]4Oc5cc(OC(=O)/C=C/c6ccccc6)cc(O)c5C(=O)[C@@H]4O)ccc3OC2CO)ccc1O (stereo not given in full)	17.1

// query Could you share which inhibition value was measured for COc1cc(C2Oc3cc([C@H]4Oc5cc(O)cc(O)c5C(=O)[C@@H]4O)ccc3OC2CO)ccc1O (stereo not given in full) ?
// result 4.8

* * *

- System Tested: Amyloid-beta precursor protein (Homo sapiens, UniProt P05067)
- Sequence (P05067 whole entry): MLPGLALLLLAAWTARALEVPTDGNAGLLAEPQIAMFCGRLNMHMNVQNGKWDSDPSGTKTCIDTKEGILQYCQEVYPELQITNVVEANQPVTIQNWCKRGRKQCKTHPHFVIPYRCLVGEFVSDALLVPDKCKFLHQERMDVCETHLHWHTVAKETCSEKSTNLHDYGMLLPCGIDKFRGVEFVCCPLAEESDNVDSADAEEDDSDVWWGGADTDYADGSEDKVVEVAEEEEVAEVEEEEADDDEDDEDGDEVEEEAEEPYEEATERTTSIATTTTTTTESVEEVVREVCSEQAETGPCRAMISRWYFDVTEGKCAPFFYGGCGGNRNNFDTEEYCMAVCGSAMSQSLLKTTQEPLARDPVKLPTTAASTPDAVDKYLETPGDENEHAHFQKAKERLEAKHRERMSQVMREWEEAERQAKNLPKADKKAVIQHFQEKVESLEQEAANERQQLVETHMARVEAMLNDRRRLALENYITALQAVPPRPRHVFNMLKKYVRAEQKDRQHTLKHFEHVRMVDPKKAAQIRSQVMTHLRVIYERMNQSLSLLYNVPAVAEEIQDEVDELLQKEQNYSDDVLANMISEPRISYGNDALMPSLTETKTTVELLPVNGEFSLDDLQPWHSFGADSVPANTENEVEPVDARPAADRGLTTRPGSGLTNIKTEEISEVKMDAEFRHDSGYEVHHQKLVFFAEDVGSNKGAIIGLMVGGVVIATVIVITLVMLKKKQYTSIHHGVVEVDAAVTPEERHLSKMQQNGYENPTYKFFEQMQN
- Test: Inhibition of amyloid beta 42 (unknown origin) expressed in Escherichia coli BL21 (DE3) aggregation at 100 uM incubated for overnight by Th-S fluorescence staining based UV-Vis spectrophotometer (reference value: 0 +/- 4.4%)
Decide using inhibition: a value greater than or equal to 60% is met, a smaller one is not met.

The following molecules have reported results that may help.
Molecule	Class Assignment
COc1cc(C2Oc3cc([C@H]4Oc5cc(O)cc(O)c5C(=O)[C@@H]4O)ccc3OC2CO)ccc1O (stereo not given in full)	not met
COc1cc(/C=C/C(=O)Oc2cc(O)c3c(c2)O[C@H](c2ccc4c(c2)OC(c2ccc(O)c(OC)c2)C(CO)O4)[C@@H](O)C3=O)ccc1O (stereo not given in full)	not met
COc1cc(/C=C/C(=O)Oc2cc(O)c3c(c2)O[C@H](c2ccc4c(c2)O[C@H](c2ccc(O)c(OC)c2)[C@@H](CO)O4)[C@@H](O)C3=O)ccc1O	not met

Note: attention shifts to another entry.
// query Record COc1cc(/C=C/C(=O)Oc2cc(O)c3c(c2)O[C@H](c2ccc4c(c2)O[C@@H](c2ccc(O)c(OC)c2)[C@H](CO)O4)[C@@H](O)C3=O)ccc1O ; criterion: inhibition no lower than 60%. Met?
// result met

* * *

- System Tested: Amyloid-beta precursor protein (Homo sapiens, UniProt P05067)
- Test: Inhibition of amyloid beta 42 (unknown origin) expressed in Escherichia coli BL21 (DE3) aggregation incubated for overnight by Th-S fluorescence staining based UV-Vis spectrophotometer
Measure Name: IC50 (µM)
Answers are plain numbers, in µM.

Compound Smiles	System Tested	Numeric Readout
COc1cc(/C=C/C(=O)Oc2cc(O)c3c(c2)O[C@H](c2ccc4c(c2)O[C@@H](c2ccc(O)c(OC)c2)[C@H](CO)O4)[C@@H](O)C3=O)ccc1O	Amyloid-beta precursor protein (Homo sapiens, UniProt P05067)	43.6

We next turn to a different compound, shown below.
// query IC50 for COc1cc(/C=C/C(=O)Oc2cc(O)c3c(c2)O[C@H](c2ccc4c(c2)O[C@H](c2ccc(O)c(OC)c2)[C@@H](CO)O4)[C@@H](O)C3=O)ccc1O ?
// result 85.5
